# System: NCI-H226 lung
# assay_notes: NCI tumour cell line growth inhibition, 48 h; in the data active means GI50 below about 0.43 µM; inactive means the rest
Classes used: active, inactive

C[C@@H](Oc1ccc2[nH]nc(/C=C/c3cnn(CCO)c3)c2c1)c1c(Cl)cncc1Cl ... active
C#Cc1cccc(Oc2ccc(NC(=O)CCl)cc2)c1 ... inactive
N[C@@H]1CCCC[C@@H]1N.O=C([O-])CN(CP(=O)([O-])[O-])CP(=O)([O-])[O-].[Pt+2] ... inactive
COc1ccc(/C=C/C(=O)c2cc3c(N)c(C(=O)Nc4ccccc4C)sc3nc2C)cc1 ... inactive
C(=C\c1nccc2c1[nH]c1ccccc12)/c1ccccc1 ... inactive
COc1cc(C2=NN(c3ccc(S(N)(=O)=O)cc3)C(c3ccc(Cl)cc3)C2)cc(OC)c1OC (centres undefined) ... inactive
O=C(Nc1cccc(O)c1)c1cccc(NC2=C(Cl)C(=O)N(Cc3ccccc3)C2=O)c1 ... inactive
CC(=O)c1cc2c(c3ccsc13)-c1ccccc1CC2 ... inactive
COC(=O)OCc1ccc2c(c1)C(=O)c1c-2n(CCCBr)c(=O)c2cc([N+](=O)[O-])ccc12 ... inactive
